Attribution: patent US20230263822A1

Tested on: human Factor 11 mRNA
Experiment: Dose-dependent inhibition of human Factor 11 in HepG2 cells, electroporation 0.7-20 uM (Example 4)
Format: cell-based
Conditions: 6.7 μM, relative to untreated control cells
Protocol: The gapmers were also transfected via electroporation and their dose dependent inhibition of human Factor 11 mRNA was measured. […] After a treatment period of approximately 16 hours, RNA was isolated from the cells and Factor 11 mRNA levels were measured by quantitative real-time PCR. […] Factor 11 mRNA levels were adjusted according to total RNA content, as measured by RIBOGREEN. […]
Strand notation (5' to 3'): a small letter for the sugar, then the base; units joined by * are phosphorothioate-linked, units joined directly phosphodiester-linked; [ ] holds rarer units or linkages, { } end groups; capitals alone tell only the bases. e = 2'-O-(2-methoxyethyl) (MOE); [5mC] = 5-methylcytosine; d = 2'-deoxy (DNA)
Each entry below lists one item and its recorded percent inhibition of Factor 11 at 6.7 μM value.
Please respond with the number in % and leave the unit unwritten.

416926 (antisense eT*eG*eG*dT*dG*d[5mC]*dA*d[5mC]*dA*dG*dT*dT*dT*d[5mC]*dT*dG*dG*e[5mC]*eA*eG) [compound 416926] : 91

What does the record list as percent inhibition of Factor 11 at 6.7 μM for 416908 (antisense eG*e[5mC]*eA*dA*d[5mC]*d[5mC]*dG*dG*dG*dA*dT*dG*dA*dT*dG*dA*dG*eT*eG*e[5mC]) [compound 416908] ?
74

// lookup percent inhibition of Factor 11 at 6.7 μM for 416989 (antisense eG*eA*dG*dA*dT*dT*d[5mC]*dT*dT*dT*dG*dG*dG*d[5mC]*d[5mC]*eA*eT*eT*e[5mC]*e[5mC]) [compound 416989]
88

So what does the record say about percent inhibition of Factor 11 at 6.7 μM for 416945 (antisense eA*eA*dT*dG*dT*d[5mC]*dT*dT*dT*dG*dT*dT*dG*d[5mC]*dA*eA*eG*e[5mC]*eG*e[5mC]) [compound 416945] ?
81

Given 416896 (antisense eT*eT*eA*dT*dG*d[5mC]*d[5mC]*d[5mC]*dT*dT*d[5mC]*dA*dT*dG*dT*d[5mC]*dT*eA*eG*eG) [compound 416896] , state its recorded percent inhibition of Factor 11 at 6.7 μM.
81

Dear colleague, I am looking for the recorded percent inhibition of Factor 11 at 6.7 μM of the following substance: 416850 (antisense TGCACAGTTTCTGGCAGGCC; 5-10-5 gapmer, further chemistry not given here) [compound 416850]
81

So what does the record say about percent inhibition of Factor 11 at 6.7 μM for 413474 (antisense eA*eG*e[5mC]*eA*eA*d[5mC]*d[5mC]*dG*dG*dG*dA*dT*dG*dA*dT*eG*eA*eG*eT*eG) [compound 413474] ?
52

Please give the measured percent inhibition of Factor 11 at 6.7 μM for this substance: 416941 (antisense eG*eG*e[5mC]*dA*dG*d[5mC]*dG*dG*dA*d[5mC]*dG*dG*d[5mC]*dA*dT*dT*dG*eG*eT*eG) [compound 416941]
79

What measured percent inhibition of Factor 11 at 6.7 μM goes with 413476 (antisense eT*eT*eG*eA*eG*dA*dT*dT*d[5mC]*dT*dT*dT*dG*dG*dG*e[5mC]*e[5mC]*eA*eT*eT) [compound 413476] ?
88

What value of percent inhibition of Factor 11 at 6.7 μM has been recorded for this entry: 413467 (antisense eG*eG*eT*e[5mC]*e[5mC]*dA*d[5mC]*dA*dT*dA*dA*dA*dT*dG*dT*e[5mC]*eT*eT*eT*eG) [compound 413467]
65

----------
Tested on: mouse Factor 11 mRNA
Assay: Cross-reactive antisense inhibition of murine Factor 11 in primary mouse hepatocytes, 100 nM (Example 9)
Assay type: cell-based
Settings: ~24 hours
Strand notation (5' to 3'): a small letter for the sugar, then the base; units joined by * are phosphorothioate-linked, units joined directly phosphodiester-linked; [ ] holds rarer units or linkages, { } end groups; capitals alone tell only the bases. e = 2'-O-(2-methoxyethyl) (MOE); [5mC] = 5-methylcytosine; d = 2'-deoxy (DNA)
Let's look at some substances and their measured % Inhibition of mouse Factor 11 mRNA levels.
Write your answer as a measured quantity: the number, then the unit.

Solved entries:
404083 (antisense eT*eG*eT*eG*e[5mC]*dA*dG*dA*dG*dT*d[5mC]*dA*d[5mC]*d[5mC]*dT*eG*e[5mC]*e[5mC]*eA*eT) [compound 404083] : 47%
404054 (eT*eA*eG*eT*eT*d[5mC]*dA*dT*dG*d[5mC]*d[5mC]*d[5mC]*dT*dT*d[5mC]*eA*eT*eG*eT*e[5mC]; antisense) [compound 404054] : 45%

Form field: reported % Inhibition of mouse Factor 11 mRNA levels of 404089 (antisense eT*eG*eA*eA*eT*dT*dA*dT*d[5mC]*dA*dT*dT*dT*d[5mC]*dT*eT*eG*eA*eA*e[5mC]) [compound 404089]
6%

----------
Catalogue of monocytes readings, one per entry.
Experiment: Hematology assays in cynomolgus monkeys (Example 45)
Type: in vivo
Settings: day −14
# unit: % | format: bare number

Below, each entry is followed by its recorded monocytes result.
ISIS 417002: MOE gapmer, nucleobases 1275 to 1318 of SEQ ID NO: 1 (Table 8) (antisense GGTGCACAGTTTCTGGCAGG; MOE gapmer, wing and gap sizes not given here) : 3.0
ISIS 416838: MOE gapmer, nucleobases 1018 to 1042 of SEQ ID NO: 1 (Table 6) (antisense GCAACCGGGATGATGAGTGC; MOE gapmer, wing and gap sizes not given here) : 3.1
ISIS 416864: MOE gapmer, nucleobases 1275 to 1318 of SEQ ID NO: 1 (Table 8) (antisense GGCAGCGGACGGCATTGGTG; MOE gapmer, wing and gap sizes not given here) : 2.8

Entry under review: ISIS 416850: MOE gapmer, nucleobases 1275 to 1318 of SEQ ID NO: 1 (Table 8) (antisense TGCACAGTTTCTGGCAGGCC; MOE gapmer, wing and gap sizes not given here) . Reported monocytes?
2.3

Could you share which monocytes value was measured for ISIS 416858: MOE gapmer, nucleobases 1275 to 1318 of SEQ ID NO: 1 (Table 8) (antisense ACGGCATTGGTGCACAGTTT; MOE gapmer, wing and gap sizes not given here) ?
2.8

----------
// MIP-1ß level lookup, one value per entry
Test system: IL-1β, IL-6, IFN-γ, TNF-α, IL-8, MIP-1α, MCP-1, MIP-1β, RANTES
Assay: Cytokine and chemokine assays in cynomolgus monkeys (Example 46)
Type: in vivo
Conditions: day-14 (before start of treatment)
Strand notation (5' to 3'): a small letter for the sugar, then the base; units joined by * are phosphorothioate-linked, units joined directly phosphodiester-linked; [ ] holds rarer units or linkages, { } end groups; capitals alone tell only the bases. e = 2'-O-(2-methoxyethyl) (MOE); [5mC] = 5-methylcytosine; d = 2'-deoxy (DNA)
Give the value in pg/mL but do not write pg/mL after it.

Some entries whose results are on file:
ISIS 416850: MOE gapmer, nucleobases 1275 to 1318 of SEQ ID NO: 1 (Table 8) (antisense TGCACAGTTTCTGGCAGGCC; MOE gapmer, wing and gap sizes not given here) : 31
ISIS 449709: 3-8-3, 4-8-4, 2-10-2, 3-10-3 or 4-10-4 MOE microwalk gapmer (Table 46) (antisense eG*e[5mC]*eA*e[5mC]*dA*dG*dT*dT*dT*d[5mC]*dT*dG*dG*d[5mC]*eA*eG*eG*e[5mC]) : 14
ISIS 449708: 3-8-3, 4-8-4, 2-10-2, 3-10-3 or 4-10-4 MOE microwalk gapmer (Table 46) (antisense eA*e[5mC]*eA*dG*dT*dT*dT*d[5mC]*dT*dG*dG*e[5mC]*eA*eG) : 19

Please state recorded MIP-1ß level (tested on IL-1β, IL-6, IFN-γ, TNF-α, IL-8, MIP-1α, MCP-1, MIP-1β, RANTES) of ISIS 445522: 5-8-5 or 6-8-6 MOE microwalk gapmer (Table 44) (antisense eG*e[5mC]*eA*e[5mC]*eA*dG*dT*dT*dT*d[5mC]*dT*dG*dG*e[5mC]*eA*eG*eG*e[5mC])
27

Kindly state the measured MIP-1ß level obtained for ISIS 416858: MOE gapmer, nucleobases 1275 to 1318 of SEQ ID NO: 1 (Table 8) (antisense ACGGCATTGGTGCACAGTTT; MOE gapmer, wing and gap sizes not given here) with IL-1β, IL-6, IFN-γ, TNF-α, IL-8, MIP-1α, MCP-1, MIP-1β, RANTES.
37

Param readout = MIP-1ß level; param system = IL-1β, IL-6, IFN-γ, TNF-α, IL-8, MIP-1α, MCP-1, MIP-1β, RANTES; param query = ISIS 449711: 3-8-3, 4-8-4, 2-10-2, 3-10-3 or 4-10-4 MOE microwalk gapmer (Table 46) (antisense eA*e[5mC]*dA*dG*dT*dT*dT*d[5mC]*dT*dG*dG*d[5mC]*eA*eG) ; response: value
24
